system: female CF1 S mice; experiment: Mouse spontaneous motor activity (activity cage); type: in vivo, mouse (CF1 S female); settings: 0.5 h, Table 1, oral, mice, 30 minutes after dosing, read-out: Exploratory Loss Activity Cage ED50
In this section we review reported log10(ED50) values for a set of molecules.
For clarity, the numbers are log10 values of ED50 expressed in mg/kg.

Record excerpt, results attached:
1) C1=CCC(CN2CC3c4ccccc4C4CC3(C2)c2ccccc24)CC1 (centres unmarked) ... -0.54
2) C1=C(CN2CC3c4ccccc4C4CC3(C2)c2ccccc24)CCCC1 (centres unmarked) ... -0.10
3) c1ccc2c(c1)C1CC3(CN(CC4CCCCC4)CC23)c2ccccc21 (centres unmarked) ... 0.67
4) CCCCCCCN1CC2c3ccccc3C3CC2(C1)c1ccccc13 (centres unmarked) ... 0.00
5) c1ccc2c(c1)[C@@H]1C[C@@]3(CN(C[C@@H]4C[C@H]5CC[C@@H]4C5)C[C@H]23)c2ccccc21 (relative stereo) ... 0.52
6) c1ccc2c(c1)C1CC3(CN(CC4CCCC4)CC23)c2ccccc21 (centres unmarked) ... -0.18

Task item: May I ask what log10(ED50) has been recorded for CCCCCCN1CC2c3ccccc3C3CC2(C1)c1ccccc13 (centres unmarked) ?
Reply: 0.11

Task item: Please give the result for c1ccc(CN2CC3c4ccccc4C4CC3(C2)c2ccccc24)cc1 (centres unmarked) too.
Reply: 0.66
